Biological target: Gcr1 (UniProt P07261)
Sequence: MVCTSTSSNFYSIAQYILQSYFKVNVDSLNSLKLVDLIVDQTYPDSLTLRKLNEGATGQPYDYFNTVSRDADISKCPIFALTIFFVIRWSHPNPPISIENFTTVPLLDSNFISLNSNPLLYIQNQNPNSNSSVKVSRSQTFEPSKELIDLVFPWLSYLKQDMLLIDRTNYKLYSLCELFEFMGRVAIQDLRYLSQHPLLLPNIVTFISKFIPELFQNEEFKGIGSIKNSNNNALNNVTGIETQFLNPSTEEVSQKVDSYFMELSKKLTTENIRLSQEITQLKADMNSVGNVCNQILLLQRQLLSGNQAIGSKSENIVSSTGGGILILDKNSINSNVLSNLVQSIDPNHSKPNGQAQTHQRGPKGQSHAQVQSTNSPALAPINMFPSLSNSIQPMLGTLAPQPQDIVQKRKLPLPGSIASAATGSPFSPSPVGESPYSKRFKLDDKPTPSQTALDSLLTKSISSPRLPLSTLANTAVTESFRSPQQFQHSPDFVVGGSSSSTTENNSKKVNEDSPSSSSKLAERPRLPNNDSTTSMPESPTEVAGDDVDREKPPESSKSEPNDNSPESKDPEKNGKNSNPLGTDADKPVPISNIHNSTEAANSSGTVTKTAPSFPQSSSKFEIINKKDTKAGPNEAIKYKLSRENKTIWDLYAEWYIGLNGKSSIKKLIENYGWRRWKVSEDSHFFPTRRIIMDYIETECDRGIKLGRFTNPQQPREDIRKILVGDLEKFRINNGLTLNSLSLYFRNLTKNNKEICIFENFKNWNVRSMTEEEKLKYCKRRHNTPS
Test: PBM E-score (8-mer binding enrichment) (E-score (-0.5 to 0.5)); higher = stronger / more preferred TF binding
Settings: protein concentration: 100 nM; construct: GST-full length
Over roughly 33,000 sequences, “E-score (-0.5 to 0.5)” has its median near -0.011; the highest 2% begin near 0.28. Shown is part of a subset that was picked to be rich in the highest values.
reported-metric: PBM E-score
API doc: respond with a numeric literal and nothing else, no unit.

What does the record list as PBM E-score for ACTTGCAC ?
-0.126

Same thing, different sequence: CCTGCCAC
0.0404

Same thing, different sequence: AACACCCA
-0.0911

Same thing, different sequence: CCAGATAC
0.294

Same thing, different sequence: CTAGCTGC
0.161

###

Target: Gcr1 (UniProt P07261)
Sequence: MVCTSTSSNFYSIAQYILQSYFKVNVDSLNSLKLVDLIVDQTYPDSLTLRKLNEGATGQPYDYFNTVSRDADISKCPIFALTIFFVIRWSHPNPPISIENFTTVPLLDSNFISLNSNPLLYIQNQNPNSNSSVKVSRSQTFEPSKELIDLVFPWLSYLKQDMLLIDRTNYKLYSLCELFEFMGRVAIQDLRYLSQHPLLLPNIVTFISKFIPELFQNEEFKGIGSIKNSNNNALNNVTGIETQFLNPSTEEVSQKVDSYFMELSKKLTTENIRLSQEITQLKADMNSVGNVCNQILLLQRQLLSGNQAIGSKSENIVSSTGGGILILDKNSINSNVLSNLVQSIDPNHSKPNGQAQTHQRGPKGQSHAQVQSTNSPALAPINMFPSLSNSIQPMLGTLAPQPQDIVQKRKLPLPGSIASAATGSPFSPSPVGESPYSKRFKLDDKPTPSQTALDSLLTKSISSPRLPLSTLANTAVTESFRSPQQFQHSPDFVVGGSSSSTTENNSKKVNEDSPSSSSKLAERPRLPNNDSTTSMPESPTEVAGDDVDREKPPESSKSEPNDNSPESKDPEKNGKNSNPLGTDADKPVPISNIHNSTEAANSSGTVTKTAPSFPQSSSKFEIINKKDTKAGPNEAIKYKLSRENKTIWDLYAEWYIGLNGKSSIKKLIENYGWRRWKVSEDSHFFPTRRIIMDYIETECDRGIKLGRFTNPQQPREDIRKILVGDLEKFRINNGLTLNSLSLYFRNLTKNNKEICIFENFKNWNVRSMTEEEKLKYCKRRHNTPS
Test: PBM E-score (8-mer binding enrichment) (E-score (-0.5 to 0.5)); higher = stronger / more preferred TF binding
Settings: protein concentration: 100 nM; construct: GST-full length
Over roughly 33,000 sequences, “E-score (-0.5 to 0.5)” has its median near -0.011; the highest 2% begin near 0.28. The full list was thinned out, with the highest values kept by preference.
Decision: PBM E-score >= 0.1 yields Condition met, all other cases yield Condition not met.

Sample answers from the record:
primary-sequence	test-target	category
ACACTTAG	Gcr1 (UniProt P07261)	Condition not met
CCGACCCA	Gcr1 (UniProt P07261)	Condition not met
TCCATAGA	Gcr1 (UniProt P07261)	Condition met
GCCAAAAA	Gcr1 (UniProt P07261)	Condition met
AACGCTGC	Gcr1 (UniProt P07261)	Condition not met

Kindly determine if PBM E-score recorded for GCACCCTA is above or exactly 0.1.
Condition met

Same thing, different sequence: CAGCTTCA
Condition not met

###

Biological target: Gcr1 (UniProt P07261)
Sequence: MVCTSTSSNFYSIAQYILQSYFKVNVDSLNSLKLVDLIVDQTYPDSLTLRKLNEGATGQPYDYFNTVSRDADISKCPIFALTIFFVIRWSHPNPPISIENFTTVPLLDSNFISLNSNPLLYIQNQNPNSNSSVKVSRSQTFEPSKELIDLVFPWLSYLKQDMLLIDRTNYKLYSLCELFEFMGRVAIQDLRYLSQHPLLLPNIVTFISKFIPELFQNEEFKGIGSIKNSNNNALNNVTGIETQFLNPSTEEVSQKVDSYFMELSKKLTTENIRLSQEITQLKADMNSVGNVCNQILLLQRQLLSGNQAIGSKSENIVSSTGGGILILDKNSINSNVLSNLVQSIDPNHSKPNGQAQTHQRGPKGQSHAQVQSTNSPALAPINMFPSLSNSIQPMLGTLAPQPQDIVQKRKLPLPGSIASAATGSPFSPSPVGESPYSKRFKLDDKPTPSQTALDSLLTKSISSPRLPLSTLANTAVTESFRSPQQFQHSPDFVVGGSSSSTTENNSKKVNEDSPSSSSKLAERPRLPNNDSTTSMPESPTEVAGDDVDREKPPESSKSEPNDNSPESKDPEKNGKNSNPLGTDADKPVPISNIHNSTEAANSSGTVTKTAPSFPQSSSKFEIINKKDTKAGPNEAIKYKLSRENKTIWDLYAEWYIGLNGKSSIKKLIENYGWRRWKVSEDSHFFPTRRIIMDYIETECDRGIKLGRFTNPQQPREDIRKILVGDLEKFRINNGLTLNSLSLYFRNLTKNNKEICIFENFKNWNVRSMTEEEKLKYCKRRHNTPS
Test: PBM E-score (8-mer binding enrichment) (E-score (-0.5 to 0.5)); higher = stronger / more preferred TF binding
Details: protein concentration: 100 nM; construct: GST-full length
Over roughly 33,000 sequences, “E-score (-0.5 to 0.5)” has its median near -0.011; the highest 2% begin near 0.28. The list comes from a sample in which the highest values are over-represented; it also holds close analogues and randomly drawn sequences.
reported-metric: PBM E-score
API doc: respond with a numeric literal and nothing else, no unit.

Sample answers from the record:
primary-sequence	PBM E-score
TGCAACCA	0.261
ATACGCAG	0.281
CCGCCCAC	0.0451
ATTTGGAA	0.373
CTGGCATA	0.0454

Under Gcr1 (UniProt P07261): PBM E-score value of GTGTTCCA ?
0.112

Same thing, different sequence: ATGGCATC
0.175

Same thing, different sequence: CGGGCACG
0.107

Same thing, different sequence: CGACGCTA
0.0406

###

Biological target: Gcr1 (UniProt P07261)
Sequence: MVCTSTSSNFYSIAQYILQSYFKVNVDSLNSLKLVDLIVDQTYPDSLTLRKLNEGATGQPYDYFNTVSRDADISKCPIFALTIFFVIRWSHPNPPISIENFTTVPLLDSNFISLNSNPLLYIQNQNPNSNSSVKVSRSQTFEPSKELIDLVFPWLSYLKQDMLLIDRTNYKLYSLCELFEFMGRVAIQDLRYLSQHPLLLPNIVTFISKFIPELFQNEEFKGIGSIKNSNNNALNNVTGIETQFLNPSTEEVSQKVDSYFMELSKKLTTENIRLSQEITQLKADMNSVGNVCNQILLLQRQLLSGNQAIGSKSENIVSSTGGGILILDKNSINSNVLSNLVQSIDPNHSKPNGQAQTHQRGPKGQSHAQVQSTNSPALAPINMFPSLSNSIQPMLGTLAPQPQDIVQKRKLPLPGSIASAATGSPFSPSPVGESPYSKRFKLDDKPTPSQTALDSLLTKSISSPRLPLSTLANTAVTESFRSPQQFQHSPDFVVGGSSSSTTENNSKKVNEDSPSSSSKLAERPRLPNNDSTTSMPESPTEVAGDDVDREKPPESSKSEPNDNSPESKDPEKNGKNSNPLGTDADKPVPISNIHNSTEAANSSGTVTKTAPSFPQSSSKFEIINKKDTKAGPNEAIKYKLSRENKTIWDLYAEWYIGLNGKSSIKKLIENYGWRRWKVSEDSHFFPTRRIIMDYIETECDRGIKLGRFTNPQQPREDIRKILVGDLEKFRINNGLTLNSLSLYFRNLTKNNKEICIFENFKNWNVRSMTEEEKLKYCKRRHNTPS
Assay: PBM E-score (8-mer binding enrichment) (E-score (-0.5 to 0.5)); higher = stronger / more preferred TF binding
Conditions: protein concentration: 100 nM; construct: GST-full length
Over roughly 33,000 sequences, “E-score (-0.5 to 0.5)” has its median near -0.011; the highest 2% begin near 0.28. The list comes from a sample in which the highest values are over-represented; it also holds close analogues and randomly drawn sequences.
Form field: PBM E-score (one value per entry).
API doc: respond with a numeric literal and nothing else, no unit.

Sample answers from the record:
primary-sequence	PBM E-score
ATTTCCAA	0.0988
CGGATCAG	0.11
CCTACTAC	-0.0926
CTAGCCAC	-0.154

What does the record list as PBM E-score for AGGTTCGG ?
-0.0598

Same thing, different sequence: CCACCCTC
-0.00165

Same thing, different sequence: ACCTATAT
0.194

Same thing, different sequence: GACAGGAA
0.316

Same thing, different sequence: TACCAGGA
0.19

Same thing, different sequence: CTGGCGTC
0.279

Same thing, different sequence: CGACCCAC
-0.0741

Same thing, different sequence: GATCCCCA
0.28

Same thing, different sequence: ACACTAGG
-0.176

Same thing, different sequence: GCTGGTAA
0.122

Same thing, different sequence: CCTTCCAA
-0.0431

Same thing, different sequence: CAATTAGC
-0.0933
